molecular target: UniProt Q99572; assay: Antagonist activity against human P2X7R stably transfected in human 1321N1 cells assessed as reduction in BzATP-induced activity incubated for 5 to 10 mins by EtBr staining based fluorescence assay; assay type: cell-based
Sequence (Q99572 whole entry): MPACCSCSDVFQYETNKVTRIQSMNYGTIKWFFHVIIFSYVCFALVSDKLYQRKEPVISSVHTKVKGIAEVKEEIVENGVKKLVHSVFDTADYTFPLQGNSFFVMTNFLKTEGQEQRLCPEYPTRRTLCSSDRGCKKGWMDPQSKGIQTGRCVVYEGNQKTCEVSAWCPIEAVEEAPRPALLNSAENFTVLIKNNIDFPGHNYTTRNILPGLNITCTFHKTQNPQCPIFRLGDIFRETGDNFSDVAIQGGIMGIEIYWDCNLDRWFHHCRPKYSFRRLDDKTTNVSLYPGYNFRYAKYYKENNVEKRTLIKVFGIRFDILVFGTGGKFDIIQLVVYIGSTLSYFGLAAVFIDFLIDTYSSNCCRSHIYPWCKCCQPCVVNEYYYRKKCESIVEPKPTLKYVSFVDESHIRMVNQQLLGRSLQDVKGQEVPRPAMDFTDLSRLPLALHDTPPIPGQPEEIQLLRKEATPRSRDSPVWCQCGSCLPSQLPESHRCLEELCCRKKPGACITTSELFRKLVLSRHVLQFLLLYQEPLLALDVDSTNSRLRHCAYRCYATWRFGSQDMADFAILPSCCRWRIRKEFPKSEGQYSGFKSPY
readout: IC50 (nM)

Here's what some known entries look like.
- smi: "NS(=O)(=O)c1ccc(CCNC(=S)NC(=O)c2ccc3c(c2)OCO3)cc1"
  target-or-system: "UniProt Q99572"
  unit-spec: "nM"
  IC50: 47
- smi: "O=C(NC(=S)Nc1cccc2cccnc12)c1ccc2c(c1)OCO2"
  target-or-system: "UniProt Q99572"
  unit-spec: "nM"
  IC50: 30

I = O=C(NC(=S)Nc1cccnc1Cl)c1ccc2c(c1)OCO2
II = O=C(NC(=S)Nc1ccc(O)cc1)c1ccc2c(c1)OCO2
III = NS(=O)(=O)c1cccc(NC(=S)NC(=O)c2ccc3c(c2)OCO3)c1
Input line: // ascending sort on recorded IC50 Answer format: the labels, ordered as requested.
Output line: I, III, II
